For each record, write down the corresponding Time.
- ASSAY_TEXT: Antiproliferative activity against mouse BMOL-T cells assessed as cell growth by measuring doubling time at 10 uM measured every 4 hrs for 3 days by IncuCyte zoom live cell analysis (reference value: 14.3 to 15 hrs)
- Assay type: functional
- PROTOCOL_CONDITIONS: time 3 day
Answers are plain numbers, in h.

# MOLECULE, READOUT_UNIT, READING
records = [
    ("CC(C)c1ccc(Oc2cccc3c2C(=O)N(C2CCC(=O)NC2=O)C3=O)cc1 (stereo unspecified)", "h", 15.4),
    ("O=C1CCC(N2C(=O)c3cccc(Nc4ccccc4)c3C2=O)C(=O)N1 (stereo unspecified)", "h", 14.3),
    ("CC(C)c1ccc(Nc2cccc3c2C(=O)N(C2CCC(=O)NC2=O)C3=O)cc1 (stereo unspecified)", "h", 16.3),
    ("O=C1CCC(N2C(=O)c3cccc(Cc4ccccc4)c3C2=O)C(=O)N1 (stereo unspecified)", "h", 13.8),
    ("O=C1CCC(N2C(=O)c3cccc(Sc4ccccc4)c3C2=O)C(=O)N1 (stereo unspecified)", "h", 13.8),
]

Return reported Time values for all items listed beneath this line.
1. O=C1CCC(N2C(=O)c3ccccc3C2=O)C(=O)N1 (stereo unspecified) [THALIDOMIDE]
2. CN1C(=O)CCC(N2C(=O)c3cccc(Sc4ccc(C(C)(C)C)cc4)c3C2=O)C1=O (stereo unspecified)
3. O=C1CCC(N2C(=O)c3cccc(Oc4ccccc4)c3C2=O)C(=O)N1 (stereo unspecified)
4. CC(C)c1ccc(S(=O)(=O)c2cccc3c2C(=O)N(C2CCC(=O)NC2=O)C3=O)cc1 (stereo unspecified)
5. CC(C)c1ccc(Cc2cccc3c2C(=O)N(C2CCC(=O)NC2=O)C3=O)cc1 (stereo unspecified)
6. Nc1cccc2c1CN(C1CCC(=O)NC1=O)C2=O (stereo unspecified) [LENALIDOMIDE]
7. O=C1CCC(N2C(=O)c3ccc(Nc4ccccc4)cc3C2=O)C(=O)N1 (stereo unspecified)

Response:
15
16.3
14.3
14.9
17
15
14.7

====

- ASSAY_TEXT: Antiproliferative activity against mouse BMOL-NT cells assessed as cell growth inhibition at 10 uM measured every 4 hrs for 3 days by IncuCyte zoom live cell analysis relative to control
- Type: cell-based
- PROTOCOL_CONDITIONS: bmol-nt, 72 h, 10 µM, time 3 day
MEASURED_PROPERTY: Activity

# COMPOUND, MEASURED_PROPERTY, READING
records = [
    ("COc1ccc(Sc2cccc3c2C(=O)N(C2CCC(=O)NC2=O)C3=O)cc1 (centres undefined)", "Activity", "Toxic"),
    ("O=C1CCC(N2C(=O)c3cccc(Sc4ncccn4)c3C2=O)C(=O)N1 (centres undefined)", "Activity", "Non-Toxic"),
    ("O=C1CCC(N2C(=O)c3cccc(Nc4ccccn4)c3C2=O)C(=O)N1 (centres undefined)", "Activity", "Toxic"),
    ("O=C1CCC(N2C(=O)c3cccc(Sc4ccc5ccccc5n4)c3C2=O)C(=O)N1 (centres undefined)", "Activity", "Non-Toxic"),
]

====

- ASSAY_TEXT: Antiproliferative activity against mouse BMOL-NT cells assessed as change in doubling time at 10 uM measured every 4 hrs for 3 days by IncuCyte zoom live cell analysis relative to control
- Assay type: cell-based
- PROTOCOL_CONDITIONS: 72 h, time 3 day
Cut-off 30% on Activity, inclusive. At or above means True; below means False.

Example entries begin here.
# COMPOUND, DISCRETE_LABEL
data = [
    ("CC(C)c1ccc(Sc2cccc3c2C(=O)N(C2CCC(=O)NC2=O)C3=O)cc1 (stereo unspecified)", "False"),
    ("CNC(=O)c1cc(Oc2ccc(NC(=O)Nc3ccc(Cl)c(C(F)(F)F)c3)cc2)ccn1 [SORAFENIB]", "True"),
    ("O=C1CCC(N2C(=O)c3cccc(Cc4ccccc4)c3C2=O)C(=O)N1 (stereo unspecified)", "False"),
    ("CC(C)c1ccc(S(=O)(=O)c2cccc3c2C(=O)N(C2CCC(=O)NC2=O)C3=O)cc1 (stereo unspecified)", "False"),
    ("CN1C(=O)CCC(N2C(=O)c3cccc(Sc4ccc(C(C)(C)C)cc4)c3C2=O)C1=O (stereo unspecified)", "False"),
]

Request: Determine whether measured Activity meets or exceeds 30% for O=C1CCC(N2C(=O)c3cccc(Sc4ccccc4)c3C2=O)C(=O)N1 (stereo unspecified)
Response: False

====

- ASSAY_TEXT: Inhibition of Akt phosphorylation in mouse BMOL-NT cells assessed as change in phosphorylated Akt level at 10 uM incubated for 6 hrs by immunofluorescent assay relative to control
- Format: cell-based
- Set-up: scale not given: the % may be the effect or the level left
For each record, write down the corresponding Activity.
One number for each entry, in %.

A selection of reference data follows.
# COMPOUND, Activity, %
measured = [
    ("CC(C)(C)c1ccc(Sc2cccc3c2C(=O)N(C2CCC(=O)NC2=O)C3=O)cc1 (stereo not drawn)", 0),
    ("Nc1cccc2c1CN(C1CCC(=O)NC1=O)C2=O (stereo not drawn) [LENALIDOMIDE]", 0),
]

# context switch: different compound, same Activity
Request: Could you share which Activity value was measured for CC(C)(C)c1ccc(Nc2cccc3c2C(=O)N(C2CCC(=O)NC2=O)C3=O)cc1 (stereo not drawn) ?
Response: 4

====

For each record, write down the corresponding Time.
- ASSAY_TEXT: Antiproliferative activity against mouse BMOL-NT cells assessed as cell growth by measuring doubling time at 10 uM measured every 4 hrs for 3 days by IncuCyte zoom live cell analysis (reference value: 18 to 19 hrs)
- Type: cell-based
- PROTOCOL_CONDITIONS: 72 h, time 3 day
Numbers only, in h.

A selection of reference data follows.
# MOLECULE, Time (h)
data = [
    ("CC(C)c1ccc(Cc2cccc3c2C(=O)N(C2CCC(=O)NC2=O)C3=O)cc1 (configuration not stated)", 17.5),
    ("O=C1CCC(N2C(=O)c3cccc(Nc4ccccc4)c3C2=O)C(=O)N1 (configuration not stated)", 17.4),
]

Return reported Time values for all items listed beneath this line.
1. CN1C(=O)CCC(N2C(=O)c3cccc(Sc4ccc(C(C)(C)C)cc4)c3C2=O)C1=O (configuration not stated)
2. CNC(=O)c1cc(Oc2ccc(NC(=O)Nc3ccc(Cl)c(C(F)(F)F)c3)cc2)ccn1 [SORAFENIB]
3. O=C1CCC(N2C(=O)c3cccc(Oc4ccccc4)c3C2=O)C(=O)N1 (configuration not stated)
4. CC(C)c1ccc(S(=O)(=O)c2cccc3c2C(=O)N(C2CCC(=O)NC2=O)C3=O)cc1 (configuration not stated)

Response:
1: 24; 2: 50; 3: 16.9; 4: 17.4

Return reported Time values for all items listed beneath this line.
1. O=C1CCC(N2C(=O)c3ccccc3C2=O)C(=O)N1 (configuration not stated) [THALIDOMIDE]
2. Cc1ccc(Sc2cccc3c2C(=O)N(C2CCC(=O)NC2=O)C3=O)cc1 (configuration not stated)
3. O=C1CCC(N2C(=O)c3cccc(Sc4ccccc4)c3C2=O)C(=O)N1 (configuration not stated)
4. O=C1CCC(N2C(=O)c3ccc(Nc4ccccc4)cc3C2=O)C(=O)N1 (configuration not stated)
5. CC(C)c1ccc(Nc2cccc3c2C(=O)N(C2CCC(=O)NC2=O)C3=O)cc1 (configuration not stated)
6. Nc1cccc2c1C(=O)N(C1CCC(=O)NC1=O)C2=O (configuration not stated) [POMALIDOMIDE]

Response:
[18, 19.3, 16.8, 17.4, 17.3, 18]

====

For each record, write down the corresponding Time.
- ASSAY_TEXT: Antiproliferative activity against mouse BMOL-T cells assessed as cell growth by measuring doubling time at 10 uM measured every 4 hrs for 3 days by IncuCyte zoom live cell analysis (reference value: 14.3 to 15 hrs)
- Type: functional
- PROTOCOL_CONDITIONS: time 3 day
Give bare numbers, in h.

A selection of reference data follows.
# MOLECULE, Time / h
measured = [
    ("Nc1cccc2c1C(=O)N(C1CCC(=O)NC1=O)C2=O (centres undefined) [POMALIDOMIDE]", 15),
    ("CC(C)c1ccc(Sc2cccc3c2C(=O)N(C2CCC(=O)NC2=O)C3=O)cc1 (centres undefined)", 16.2),
]

Return reported Time values for all items listed beneath this line.
1. CC(C)c1ccc(Nc2ccc3c(c2)C(=O)N(C2CCC(=O)NC2=O)C3=O)cc1 (centres undefined)
2. CNC(=O)c1cc(Oc2ccc(NC(=O)Nc3ccc(Cl)c(C(F)(F)F)c3)cc2)ccn1

Response:
1. 14.1
2. 71

====

- ASSAY_TEXT: Antiproliferative activity against mouse BMOL-NT cells assessed as cell growth by measuring doubling time at 10 uM measured every 4 hrs for 3 days by IncuCyte zoom live cell analysis (reference value: 18 to 19 hrs)
- Type: cell-based
- PROTOCOL_CONDITIONS: 72 h, time 3 day
For each record, write down the corresponding Time.
Give bare numbers, in h.

# MOLECULE, READOUT_UNIT, Time
measured = [
    ("CC(C)c1ccc(Sc2cccc3c2C(=O)N(C2CCC(=O)NC2=O)C3=O)cc1 (stereo not given)", "h", 17.2),
    ("Nc1cccc2c1CN(C1CCC(=O)NC1=O)C2=O (stereo not given) [LENALIDOMIDE]", "h", 18),
]

Return reported Time values for all items listed beneath this line.
1. CC(C)c1ccc(Nc2ccc3c(c2)C(=O)N(C2CCC(=O)NC2=O)C3=O)cc1 (stereo not given)
2. CC(C)c1ccc(Oc2cccc3c2C(=O)N(C2CCC(=O)NC2=O)C3=O)cc1 (stereo not given)
3. O=C1CCC(N2C(=O)c3cccc(Cc4ccccc4)c3C2=O)C(=O)N1 (stereo not given)

Response:
17.2
17.5
17.7
